- EXPERIMENT SUMMARY: growth inhibition of GSK3B-pretreated HCT116 cells – cell-based, CellTiter-Glo, 0.2 to 20 µM (AID 1117336)
- CONDITION INFO: HCT116 viability after GSK3B inhibitor, at 20 µM
Activity calls are given as the source filed them.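 How the source made its calls: active means compounds lowering colon cancer cell viability after pretreatment blocking the GSK3B kinase; inactive means the rest.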
Pick from active, inactive when you respond.

Recorded results for 5 compounds are shown here.
O=C(O)COc1ccccc1 = inactive
COP(=S)(OC)Oc1ccc(S(=O)(=O)N(C)C)cc1 = inactive
O=C(NCNC(=O)NC1C(=O)NC(=O)N1CO)NC1C(=O)NC(=O)N1CO (stereo unspecified) = inactive
Cc1nnc2n1-c1sc(CCc3ccc(CC(C)C)cc3)cc1C(c1ccccc1Cl)=NC2C (stereo unspecified) = active
C1CCC(NC2CCCCC2)CC1 = inactive

Kindly consider the entry below.
Dear colleague, could you share the recorded outcome for O=c1[nH]c2ccccc2n1C1CCNCC1 when you have a moment?
inactive

* * *

- EXPERIMENT SUMMARY: differential killing of epithelial or mesenchymal cells, primary screen, imaging, PC-3E GFP, TEM4-18 mCherry, co-culture (AID 1345086);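 further: cells exposed to compound for 72 h before imaging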
- CONDITION INFO: imaging cell counts, measured here: epithelial PC-3E GFP cell survival, at 1 µM
VALUE KIND: normalised cell number
Number only, please.

// solved cases for normalised cell number follow
COP(=O)(OC)OC=C(Cl)Cl = 1.09
CC(=O)O[C@@H]1CC2C(C)(C)C(=O)C=C[C@]2(C)C2CC[C@]3(C)C(=CC(=O)O[C@H]3c3ccoc3)[C@@]21C (some centres not stated) = 0.98
O=P1(NCCCl)OCCCN1CCCl (configuration not stated) = 1.08
CC1NCCc2cc(O)c(O)cc21 (configuration not stated) = 1.11
NCCc1cc(O)c(O)cc1O = 1.02

GET /value?item= C[C@@H]1[C@H](O)[C@@H](C)/C=C/C=C/CC/C=C/C=C/C=C/C=C/[C@H](OC2O[C@H](C)[C@@H](O)[C@H](N)[C@@H]2O)C[C@@H]2O[C@](O)(C[C@@H](O)[C@H](O)CC[C@@H](O)C[C@@H](O)C[C@@H](O)CC(=O)O[C@H]1C)C[C@H](O)[C@H]2C(=O)O (some centres not stated) &field=normalised cell number returns 1.27

GET /value?item= COc1cccc(C=O)c1OC &field=normalised cell number returns 0.98

* * *

- Test system: Hepatitis C virus NS3 helicase
- EXPERIMENT SUMMARY: HCV NS3 helicase inhibitors, primary screen, biochemical, fluorescence polarization, NIH Clinical Collection (AID 743270)
- CONDITION INFO: NS3 helicase binding to Cy5-dT15 DNA, stronger effect = higher value, concentration not given here
Listed compounds paired with reported inhibition
Give the value in % but do not write % after it.

CN1C(=O)COc2c(C(=O)NC3CN4CCC3CC4)cc(Cl)cc21 (stereo not drawn) = 2.77
COc1ccc(CCN)cc1OC = -0.22

Measured inhibition for this entry Cc1ncc2n1-c1ccc(Cl)cc1C(c1ccccc1F)=NC2 on Hepatitis C virus NS3 helicase: -1.98

Measured inhibition for this entry Oc1ccc2c3c1OC1C(O)CC[C@@]4(O)[C@@H](C2)N(CC2CCC2)CC[C@]314 (stereo partly drawn) on Hepatitis C virus NS3 helicase: -1.98

* * *

- TESTED ON: Single-stranded DNA-binding protein (Escherichia coli (strain K12)) (UniProt P0AGE0)
- EXPERIMENT SUMMARY: E. coli SSB displacement from DNA, counter-screen for HCV NS3 helicase inhibitor project, biochemical, fluorescence polarization, NIH Clinical Collection (AID 743271)
- CONDITION INFO: stronger effect = higher value, concentration not given here
VALUE KIND: inhibition (%)
Give the value in % but do not write % after it.

CCCC(C)(COC(N)=O)COC(=O)NC(C)C (centres undefined) = -2
O=C1Nc2ccc(Cl)cc2C(c2ccccc2Cl)=NC1O (centres undefined) = -0.39
CC[C@@H]1C=CC=CC[C@H](C)[C@@H](O)[C@@H](C)C(=O)[C@H](C)[C@@H](O)[C@H](C)C(=O)[C@H](C)[C@@H](O)[C@H](C)C=CC(=O)O[C@H]2[C@@H](C)[C@@H](CC1)O[C@@]1(CC[C@@H](C)[C@@H](C[C@H](C)O)O1)[C@@H]2C = 7.6

Please examine the following record next.
GET /value?item= Clc1ccc(COC(Cn2ccnc2)c2ccc(Cl)cc2Cl)c(Cl)c1 (centres undefined) &field=inhibition returns 4.86

* * *

- TESTED ON: L-lactate dehydrogenase (Plasmodium falciparum (isolate CDC / Honduras)) (UniProt Q27743)
- Sequence (Q27743 whole entry, looked up): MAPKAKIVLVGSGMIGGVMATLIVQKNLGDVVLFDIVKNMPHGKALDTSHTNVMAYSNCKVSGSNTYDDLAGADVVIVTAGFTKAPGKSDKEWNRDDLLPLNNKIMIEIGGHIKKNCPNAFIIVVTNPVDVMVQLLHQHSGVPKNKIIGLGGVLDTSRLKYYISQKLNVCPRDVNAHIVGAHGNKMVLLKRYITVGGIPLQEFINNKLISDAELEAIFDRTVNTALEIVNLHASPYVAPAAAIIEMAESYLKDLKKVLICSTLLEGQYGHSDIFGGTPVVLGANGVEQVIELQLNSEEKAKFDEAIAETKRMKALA
- EXPERIMENT SUMMARY: PfLDH activity inhibition – cell lysate, 3D7 strain, counter-screen for P. falciparum growth inhibition project (AID 2304);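 further: 0% = vehicle and 100% = reference inhibitor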
- CONDITION INFO: P. falciparum 3D7 crude extract, LDH APAD/NBT absorbance; at 2 µM; stronger effect = higher value
Listed molecules paired with reported inhibition
Give the value in % but do not write % after it.

GET /value?item= O=C(/C=C/c1ccc(Cl)c(Cl)c1)N1CCC(CN2CCC(c3cn(CC(=O)N4CCCCC4)c4ccccc34)CC2)CC1 &field=inhibition returns -2

GET /value?item= O=C(/C=C/c1ccc(Cl)c(Cl)c1)Nc1cccc(CN2CCC(c3c[nH]c4ccc(O)cc34)CC2)c1 &field=inhibition returns 0

GET /value?item= CC[C@H]1CN2CC[C@H]1C[C@H]2[C@H](O)c1cc(-c2ccc(F)cc2C)nc2ccc(OC)cc12 &field=inhibition returns -3

GET /value?item= CC[C@H]1CN2CC[C@H]1C[C@H]2[C@H](O)c1cc(-c2ccccc2F)nc2ccc(OC)cc12 &field=inhibition returns 1

* * *

- EXPERIMENT SUMMARY: ICB984 medulloblastoma cell growth inhibition, synergistic combos for chromothripsis tumors, cisplatin or BGB combos (AID 1671451);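 further: cells exposed for 96 hours before readout; 0% = vehicle DMSO and 100% = killing by high DMSO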
- CONDITION INFO: ICB984 medulloblastoma cells, drug combinations, at 0.5 µM, stronger effect = higher value
VALUE KIND: inhibition (%)
Give the value in % but do not write % after it.

GET /value?item= O=c1[nH]c(=O)n(C2OC(CO)C(O)C2O)cc1F (stereo unspecified) &field=inhibition returns -9.47

GET /value?item= CC1(C)C(C(=O)Nc2ccc(S(=O)(=O)c3ccc(NC(=O)C4C(C)(C)C4(C)C)cc3)cc2)C1(C)C &field=inhibition returns -22.6

GET /value?item= O=C(O)CCCc1ccc(N(CCCl)CCCl)cc1 &field=inhibition returns -29

* * *

Listed compounds paired with reported inhibition
- EXPERIMENT SUMMARY: HepG2 cytotoxicity, primary screen, cytotoxicity control for P. falciparum antimalarial project, cell-based, ATP luminescence (AID 2303);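 further: 0% = DMSO wells and 100% = digitonin-killed cells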
- CONDITION INFO: HepG2 viability, 24-48 h, at 10 µM, stronger effect = higher value
Give the value in % but do not write % after it.

// solved cases for inhibition follow
CC[C@H]1CN2CC[C@H]1C[C@H]2[C@H](O)c1cc(-c2cccc(C)c2)nc2ccc(OC)cc12 = 15
COc1cc(C=CC(=O)N2CCC(CN3CCC(c4c[nH]c5ccccc45)CC3)CC2)ccc1O = 11
CCCCCCC(C)(C)c1cc(O)c2c3c(c(=O)oc2c1)CCN(Cc1ccccc1)C3 = 3
COc1ccc(CC(C)NCC(O)c2cccc(Br)c2)cc1 (centres undefined) = 10
O=C(NC1CCC(CN2CCC(c3c[nH]c4ccccc34)CC2)CC1)c1ccc(-c2cc(C(F)(F)F)ccc2Cl)o1 (centres undefined) = 5

GET /value?item= COC(=O)c1ccc(CC(C)NCC(O)c2cccc(C(F)(F)F)c2)cc1F (centres undefined) &field=inhibition returns 1

* * *

- Tested on: R275C/beta2Delta
- EXPERIMENT SUMMARY: modulators of BK channel variants, profiling panel, selectivity assay, cell-based, U2OS BacMam, thallium flux, beta subunits (AID 1259406);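 further: initial slope of Thallos dye fluorescence rise after thallium is added; log ratio against the mean of 0.3% DMSO vehicle wells on the same plate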
- CONDITION INFO: at 30 µM
VALUE KIND: log fold change Tl+ flux
Number only, please.

// solved cases for log fold change Tl+ flux follow
CN1CCN(C(=O)O[C@H]2c3nccnc3C(=O)N2c2ccc(Cl)cn2)CC1 = 0.0513
O=C1CC[C@@]2(O)[C@H]3Cc4ccc(O)c5c4[C@@]2(CCN3CC2CC2)[C@H]1O5 = -0.0407
COc1ccc(C(CN(C)C)C2(O)CCCCC2)cc1 (stereo unspecified) = -0.0272
CC12CCC(=O)C=C1CCC1C2CCC2(C)C(O)CCC12 (stereo unspecified) = 0.059
Clc1ccc(COC(Cn2ccnc2)c2ccc(Cl)cc2Cl)cc1 (stereo unspecified) = 0.0329

GET /value?item= CNCC(O)c1ccc(O)cc1 (stereo unspecified) &field=log fold change Tl+ flux returns 0.0197

* * *

- EXPERIMENT SUMMARY: sensitizers of A549 cells to miR-34 induction, primary screen, imaging, A549 dox-inducible miR-34, nuclei and caspase counts (AID 1347080)
- CONDITION INFO: A549 miR-34 inducible, Hoechst nuclei count, 48 h; measured here: relative caspase fold change +Dox/-Dox
VALUE KIND: fold change
Number only, please.

C=C(C)CN1CC[C@]23c4c5ccc(O)c4O[C@H]2c2[nH]c4ccccc4c2C[C@@]3(O)C1C5 = 0.814

GET /value?item= NCCc1ccc(O)cc1 &field=fold change returns 1.32

GET /value?item= C=C[C@]12CN(C)[C@@H]3[C@H]4COC(CC41)[C@]1(C(=O)Nc4ccccc41)[C@@H]32 &field=fold change returns 1.55

GET /value?item= Fc1ccc(C(OCCN2CCN(C/C=C/c3ccccc3)CC2)c2ccc(F)cc2)cc1 &field=fold change returns 1.03

GET /value?item= CC(O)CN1CCN(CC(=O)[O-])CCN(CC(=O)[O-])CCN(CC(=O)[O-])CC1.[Gd+3] (stereo unspecified) &field=fold change returns 0.913

GET /value?item= NC(Cn1oc(=O)[nH]c1=O)C(=O)O (stereo unspecified) &field=fold change returns 0.896
